testDetails: self-splicing fitness, log relative to wild type (ln ratio); higher = more splicing; Tetrahymena group I intron in knt gene, E. coli kanamycin selection, DiMSum; sequences stand for … in CUCUCU…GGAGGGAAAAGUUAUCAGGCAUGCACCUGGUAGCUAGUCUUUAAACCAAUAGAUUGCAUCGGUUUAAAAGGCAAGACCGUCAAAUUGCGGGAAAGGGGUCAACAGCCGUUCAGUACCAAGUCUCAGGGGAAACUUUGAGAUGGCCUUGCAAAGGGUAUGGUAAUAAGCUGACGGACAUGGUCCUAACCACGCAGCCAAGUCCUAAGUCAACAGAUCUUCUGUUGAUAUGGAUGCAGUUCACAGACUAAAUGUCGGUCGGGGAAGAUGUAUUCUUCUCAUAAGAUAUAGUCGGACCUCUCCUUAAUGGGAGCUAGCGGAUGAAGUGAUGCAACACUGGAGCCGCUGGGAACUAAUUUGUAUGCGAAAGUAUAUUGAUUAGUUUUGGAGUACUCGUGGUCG;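 note: selection with 25 µg/mL kanamycin versus none on LB agar overnight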
conditionLabel: 30 °C
So I've got a bunch of sequences here, and I need their self-splicing fitness (ln) values.
Hey, just send me the number, nothing else.

## Input Any idea what its self-splicing fitness (ln) is? The sequence is "CCACAGCAAUAUUACGUUCA"
## Output -3.27

## Input Any idea what its self-splicing fitness (ln) is? The sequence is "AGUUAGCAAUAUUACGCGGA"
## Output -0.823

## Input Any idea what its self-splicing fitness (ln) is? The sequence is "UGCUAGCAAUAUUACGUCCU"
## Output -1.19

## Input Any idea what its self-splicing fitness (ln) is? The sequence is "AUUCAGCAAUAUUACGAUUG"
## Output -1.88

## Input Any idea what its self-splicing fitness (ln) is? The sequence is "UGUGAGCAAUAUUACGCGCA"
## Output -1.34

## Input Any idea what its self-splicing fitness (ln) is? The sequence is "CGUCAGCAAUAUUACGCACG"
## Output -2.16

## Input Any idea what its self-splicing fitness (ln) is? The sequence is "CCCCAGCAAUAUUACGGGGC"
## Output -2.95

## Input Any idea what its self-splicing fitness (ln) is? The sequence is "UUUUAGCAAUAUUACGGUUA"
## Output -1.54

## Input Any idea what its self-splicing fitness (ln) is? The sequence is "ACUGAGCAAUAUUACGUGGC"
## Output -3.3

## Input Any idea what its self-splicing fitness (ln) is? The sequence is "GCUGAGCAAUAUUACGUGAA"
## Output -2.63

## Input Any idea what its self-splicing fitness (ln) is? The sequence is "CAAAAGCAAUAUUACGCGUG"
## Output -3.22

## Input Any idea what its self-splicing fitness (ln) is? The sequence is "ACUCAGCAAUAUUACGGACC"
## Output -0.551

## Input Any idea what its self-splicing fitness (ln) is? The sequence is "CCACAGCAAUAUUACGAGAA"
## Output -2.74

## Input Any idea what its self-splicing fitness (ln) is? The sequence is "CAUCAGCAAUAUUACGUAGG"
## Output -0.284

## Input Any idea what its self-splicing fitness (ln) is? The sequence is "GGGUAGCAAUAUUACGACGA"
## Output -0.202

## Input Any idea what its self-splicing fitness (ln) is? The sequence is "CUAGAGCAAUAUUACGCACG"
## Output -0.957

Data origin, for the record: the supplement of paper PMC7877785
